target: Human immunodeficiency virus type 1 reverse transcriptase (Human immunodeficiency virus 1, UniProt Q72547); experiment: Inhibition of recombinant wild type HIV-1 Reverse transcriptase incubated for 40 mins by Pico-green reagent based fluorescence analysis
Values of IC50 strictly less than 100 nM map to condition met, and values of at least 100 nM map to condition not met.

Recorded results for 3 compounds are shown here.
IN: Does the reported IC50 of the following compound sit strictly below 100 nM? `N#Cc1ccc(Nc2ncc(-c3cccs3)c(Nc3c(F)cc(-c4ccncc4)cc3F)n2)cc1`
OUT: condition not met

IN: Now give it for `Cc1ccc(-c2cnc(Nc3ccc(C#N)cc3)nc2Nc2c(C)cc(-c3ccncc3)cc2C)cn1` too.
OUT: condition not met

IN: Now give it for `Cc1cc(-c2ccncc2)cc(C)c1Nc1nc(Nc2ccc(C#N)cc2)ncc1-c1ccc(F)nc1` too.
OUT: condition met

---
IN: Does the reported IC50 of the following compound sit strictly below 100 nM? `Cc1cc(-c2ccncc2)cc(C)c1Nc1nc(Nc2ccc(C#N)cc2)ncc1-c1cccs1`
OUT: condition met

IN: Now give it for `N#Cc1ccc(Nc2ncc(-c3ccco3)c(Nc3c(F)cc(-c4ccncc4)cc3F)n2)cc1` too.
OUT: condition met

IN: Now give it for `N#Cc1ccc(Nc2ncc(-c3ccnc(Cl)c3)c(Nc3c(F)cc(-c4ccncc4)cc3F)n2)cc1` too.
OUT: condition not met

IN: Now give it for `Cc1cc(-c2ccncc2)cc(C)c1Nc1nc(Nc2ccc(C#N)cc2)ncc1-c1ccc(N)nc1` too.
OUT: condition met

IN: Now give it for `N#Cc1ccc(Nc2ncc(-c3ccnc(F)c3)c(Nc3c(F)cc(-c4ccncc4)cc3F)n2)cc1` too.
OUT: condition not met
